Data provenance is ChEMBL document CHEMBL5038608.

ASSAY_METHOD_TEXT: Microsomal stability in human liver microsomes assessed as half life at 1 uM preincubated for 5 mins followed by NADPH regenerating system addition measured after 30 mins by LC-MS/MS analysis
Type: ADME, Microsome
RUN_CONDITIONS: t1/2, time 35 min
ENDPOINT: half-life at 1 µM (h)

Recorded results for 3 compounds are shown here.
N#Cc1ccc(NC(=O)NC2CCN(c3ccccc3F)C2=O)cc1 (stereo not given): 1.42
Cc1nn(-c2ccccc2)c(C)c1N1CCC(NC(=O)Nc2ccc(Br)cc2)C1=O (stereo not given): 3.15
O=C(Nc1ccc(Br)cc1)NC1CCN(CC2CCN(Cc3ccccc3)CC2)C1=O (stereo not given): 3.78

(P) CC(C)(C)OC(=O)N1CCC(N2CCC(NC(=O)Nc3ccc(Br)cc3)C2=O)CC1 (stereo not given)
(Q) O=C(Nc1ccc(Br)cc1)NC1CCN(Cc2ccccc2)C1=O (stereo not given)
(R) O=C(Nc1ccc(Br)cc1)NC1CCN(C2CCN(Cc3ccccc3)CC2)C1=O (stereo not given)
(S) O=C(Nc1ccc(Br)cc1)NC1CCN(c2cnn(-c3ccncc3)c2)C1=O (stereo not given)
(T) O=C(Nc1ccc(Br)cc1)NC1CCN(C2CCN(Cc3ccccc3)C2)C1=O (stereo in doubt; 18)
Please give the order of these compounds when sorted by half-life at 1 µM, largest value leading. Please respond with the labels ordered as the question requires.
S, P, Q, R, T

###

TARGET_OR_SYSTEM: N-formyl peptide receptor 2 (Homo sapiens) (UniProt P25090)
Sequence (P25090 whole entry): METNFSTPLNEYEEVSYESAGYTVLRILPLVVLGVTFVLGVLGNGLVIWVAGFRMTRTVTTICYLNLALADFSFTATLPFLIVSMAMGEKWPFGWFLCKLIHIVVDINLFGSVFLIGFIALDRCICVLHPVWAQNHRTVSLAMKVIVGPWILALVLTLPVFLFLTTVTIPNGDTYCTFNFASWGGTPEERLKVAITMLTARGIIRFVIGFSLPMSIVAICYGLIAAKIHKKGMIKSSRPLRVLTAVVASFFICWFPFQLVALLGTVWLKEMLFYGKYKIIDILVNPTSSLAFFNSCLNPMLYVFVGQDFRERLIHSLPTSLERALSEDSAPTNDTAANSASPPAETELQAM
ASSAY_METHOD_TEXT: Agonist activity at FPRL1 (unknown origin) expressed in CHO-K1 cells assessed as stimulation of beta-arrestin recruitment […] incubated for 150 mins by beta-galactosidase based PathHunter assay
Assay type: functional, cell-based
RUN_CONDITIONS: filed as agonist
ENDPOINT: Emax (%)

O=C(Nc1ccc(Br)cc1)NC1CCN(C2CCNCC2)C1=O (configuration not stated): 100
O=C(Nc1ccc(Br)cc1)NC1CCN(CC2CCN(Cc3ccccc3)CC2)C1=O (configuration not stated): 93
Cc1nn(-c2ccccc2)c(C)c1N1CCC(NC(=O)Nc2ccc(Br)cc2)C1=O (configuration not stated): 95
O=C(Nc1ccc(Br)cc1)NC1CCN(CC2CCNCC2)C1=O (configuration not stated): 102
O=C(Nc1ccc(Br)cc1)NC1CCN(C2CCN(Cc3ccccc3)CC2)C1=O (configuration not stated): 96
CC(C)(C)OC(=O)N1CC(N2CCC(NC(=O)Nc3ccc(Br)cc3)C2=O)C1 (configuration not stated): 103
Cc1nn(C)cc1N1CCC(NC(=O)Nc2ccc(Br)cc2)C1=O (configuration not stated): 98

###

TARGET_OR_SYSTEM: N-formyl peptide receptor 2 (Homo sapiens)
ASSAY_METHOD_TEXT: Agonist activity at FPRL1 (unknown origin) expressed in CHO-K1 cells assessed as increase in calcium mobilization incubated for 2.5 hrs by cellular based FLIPR assay
Format: functional, cell-based
RUN_CONDITIONS: read-out: EC50
pEC50: −log10 of the molar value.
ENDPOINT: pEC50

Recorded results for 8 compounds are shown here.
O=C(Nc1ccc(Br)cc1)NC1CCN(C2CCN(Cc3ccccc3)C2)C1=O (stereo in doubt; 18): 6.43
Cc1nn(-c2ccccc2)c(C)c1N1CCC(NC(=O)Nc2ccc(Br)cc2)C1=O (stereo not drawn): 6.55
O=C(Nc1ccc(Br)cc1)NC1CCN(C2CCN(Cc3ccccc3)C2)C1=O (stereo in doubt; 17): 5.57
O=C(Nc1ccc(Br)cc1)NC1CCN(C2CCNCC2)C1=O (stereo not drawn): 6.64
O=C(Nc1ccc(Br)cc1)NC1CCN(CC2CCNCC2)C1=O (stereo not drawn): 6.57
CC(C)(C)OC(=O)N1CCC(CN2CCC(NC(=O)Nc3ccc(Br)cc3)C2=O)CC1 (stereo not drawn): 6.40
CC(C)(C)OC(=O)N1CC(N2CCC(NC(=O)Nc3ccc(Br)cc3)C2=O)C1 (stereo not drawn): 6.39
CC(C)(C)OC(=O)N1CCC[C@H](N2CCC(NC(=O)Nc3ccc(Br)cc3)C2=O)C1 (stereo in doubt; 19): 6.89

(a) Cc1nn(C)cc1N1CCC(NC(=O)Nc2ccc(Br)cc2)C1=O (stereo not drawn)
(b) O=C(Nc1ccc(Br)cc1)NC1CCN(c2ccccc2)C1=O (stereo not drawn)
(c) CC(C)n1cc(N2CCC(NC(=O)Nc3ccc(Br)cc3)C2=O)cn1 (stereo not drawn)
(d) CC(C)(C)OC(=O)N1CCC[C@H](N2CCC(NC(=O)Nc3ccc(Br)cc3)C2=O)C1 (stereo in doubt; 20)
(e) O=C(Nc1ccc(Br)cc1)NC1CCN(C2CCN(c3ncccn3)CC2)C1=O (stereo not drawn)
Please give the order of these compounds when sorted by pEC50, largest value leading. Please respond with the labels ordered as the question requires.
e, d, a, b, c
(e: 8.10, d: 7.22, a: 6.85, b: 6.37, c: 6.05)
